# Measurement protocol: Plasma pharmacokinetics by LC-MS/MS
# Settings: human, plasma, oral, Median Tmax [Min; Max], plasma binimetinib; 2nd section, Cycle 1 Day 1 (C1D1); Dose Level 3: AEB071 300 mg bid and MEK162 30 mg bid
Attribute measured: Tmax (h)

> print(dat)
                              sample.smiles  attribute.measured  endpoint.result
1  Cn1cnc2c(F)c(Nc3ccc(Br)cc3F)c(C(=O)NOCCO)cc21                Tmax                3

---

# Measurement protocol: Plasma pharmacokinetics by LC-MS/MS
# Settings: human, plasma, oral, Median Tmax [Min; Max], plasma binimetinib; Cycle 1 Day 1 (C1D1); Dose Level 2: AEB071 200 mg bid and MEK162 45 mg bid
Attribute measured: Tmax (h)

> print(dat)
                              sample.smiles  attribute.measured  endpoint.result
1  Cn1cnc2c(F)c(Nc3ccc(Br)cc3F)c(C(=O)NOCCO)cc21                Tmax              1.1
